Provenance of the data: patent US12077503B2

# Plant response rating, Ragweed listing for each entry below
system: ragweed (common ragweed, Ambrosia elatior); experiment: Test C preemergence; type: in vivo; conditions: 125 g ai/ha, scale 0 to 100, 0 no effect, 100 complete control
endpoint: Plant response rating, Ragweed

molecule: CN1CC(c2cccc(OC(F)(F)C(F)F)c2)C(C(=O)Nc2ccc(F)cc2F)C1=O (centres unmarked)
endpoint: Plant response rating, Ragweed
quantitative-readout: 40
//
molecule: CN1CC(c2ccc(F)c(C(F)(F)F)c2)C(C(=O)Nc2cccc(F)c2F)C1=O (centres unmarked)
endpoint: Plant response rating, Ragweed
quantitative-readout: 40
//
molecule: CN1C[C@H](c2ccc(F)c(F)c2)[C@@H](C(=O)Nc2cccc(F)c2F)C1=O
endpoint: Plant response rating, Ragweed
quantitative-readout: 75
//
molecule: CN1CC(c2cccc(C(F)(F)F)c2)C(C(=O)Nc2ccccc2S(C)(=O)=O)C1=O (centres unmarked)
endpoint: Plant response rating, Ragweed
quantitative-readout: 75
//
molecule: CN1CC(c2ccc(C(F)(F)F)c(F)c2)C(C(=O)Nc2ccccc2S(C)(=O)=O)C1=O (centres unmarked)
endpoint: Plant response rating, Ragweed
quantitative-readout: 70
//
molecule: CN1CC(c2cccc(C(F)(F)F)c2)C(C(=O)Nc2cccc(F)c2F)C1=O (centres unmarked)
endpoint: Plant response rating, Ragweed
quantitative-readout: 65
//
molecule: O=C1NCC(c2cccc(OC(F)(F)C(F)F)c2)C1C(=O)Nc1ccccc1F (racemic)
endpoint: Plant response rating, Ragweed
quantitative-readout: 75
//
molecule: CN1CC(c2cccc(OC(F)F)c2)C(C(=O)Nc2ccccc2F)C1=O (centres unmarked)
endpoint: Plant response rating, Ragweed
quantitative-readout: 65

----------
system: wheat (Triticum aestivum); assay: Test A postemergence; type: in vivo; details: Triticum aestivum, post-emergence, 240 h, 125 g ai/ha, postemergence, visual injury vs untreated controls after approx. 10 d; 0 = no effect, 100 = complete control; read-out: Wheat plant response rating (0 to 100 scale)

molecule: CN1C[C@H](c2ccc3c(c2)OC(F)(F)O3)[C@@H](C(=O)Nc2ccc(F)c(F)c2F)C1=O [Compound 1204]
plant injury at 125 g/ha (%): 60
--
molecule: O=C1NC[C@H](c2ccc(C(F)(F)F)cc2)C1C(=O)Nc1ccccc1CO (stereo partly drawn) [Compound 1242]
plant injury at 125 g/ha (%): 0
--
molecule: N#Cc1cc([C@H]2CNC(=O)[C@]2(O)C(=O)Nc2ccccc2F)ccc1F [Compound 1200]
plant injury at 125 g/ha (%): 0
--
molecule: CSc1ccccc1NC(=O)[C@H]1C(=O)N(C)C[C@@H]1c1ccc2c(c1)OC(F)(F)O2 [Compound 1251]
plant injury at 125 g/ha (%): 30
--
molecule: CCc1cc([C@H]2CN(C)C(=O)[C@@H]2C(=O)Nc2ccccc2F)cs1 [Compound 1156]
plant injury at 125 g/ha (%): 20
--
molecule: O=C1NC[C@H](c2ccc(F)c(OC(F)(F)C(F)F)c2)[C@H]1C(=O)Nc1ccc(F)cc1F (racemic) [Compound 1154]
plant injury at 125 g/ha (%): 40
--
molecule: Cc1ccc([C@H]2CCN(C)C(=O)[C@@H]2C(=O)Nc2cccc(F)c2F)cc1 [Compound 1220]
plant injury at 125 g/ha (%): 20
--
molecule: CN1C[C@H](c2ccc(F)c(Br)c2)[C@@H](C(=O)Nc2cccc(F)c2F)C1=O [Compound 1234]
plant injury at 125 g/ha (%): 40
--
molecule: CN1C[C@H](c2ccc(C#N)cc2)[C@@H](C(=O)Nc2ccccc2F)C1=O [Compound 1207]
plant injury at 125 g/ha (%): 0
--
molecule: CN1CC[C@H](c2ccc(C(F)(F)F)cc2)[C@@H](C(=O)Nc2cccc(F)c2F)C1=O [Compound 1225]
plant injury at 125 g/ha (%): 30
--
molecule: CN1C[C@H](c2cc(F)cc(C(F)(F)F)c2)[C@@H](C(=O)Nc2cccc(F)c2F)C1=O [Compound 1214]
plant injury at 125 g/ha (%): 70
--
molecule: Cc1c(F)cccc1NC(=O)[C@H]1C(=O)N(C)C[C@@H]1c1ccc(F)c(Br)c1 [Compound 1211]
plant injury at 125 g/ha (%): 30
--
molecule: Cc1ccc([C@H]2CNC(=O)[C@@H]2C(=O)Nc2c(F)cccc2F)cc1C [Compound 1247]
plant injury at 125 g/ha (%): 0
--
molecule: CSc1ccccc1NC(=O)[C@H]1C(=O)N(C)C[C@@H]1c1cccc(C)c1 [Compound 1232]
plant injury at 125 g/ha (%): 0
--
molecule: CN1C[C@H](c2ccc(C#N)cc2)[C@@H](C(=O)Nc2cccc(F)c2F)C1=O [Compound 1208]
plant injury at 125 g/ha (%): 0

----------
test system: ryegrass, Italian (Italian ryegrass, Lolium multiflorum); test: Test A postemergence; type: in vivo; details: Lolium multiflorum, post-emergence, 240 h, 125 g ai/ha, postemergence, visual injury rating after approximately 10 d; read-out: Ryegrass, Italian plant response rating (0 to 100 scale, 0 no effect, 100 complete control)

compound: CN1C[C@H](c2ccc(C(F)F)cc2)[C@@H](C(=O)Nc2ccccc2F)C1=O
unit-name: %
pest or weed control at 125 g/ha: 40
//
compound: COc1cc(C(F)(F)F)ccc1[C@H]1CN(C)C(=O)[C@@H]1C(=O)Nc1ccccc1SC
unit-name: %
pest or weed control at 125 g/ha: 0
//
compound: CN1C[C@H](c2cc(F)c(C(F)(F)F)c(F)c2)[C@@H](C(=O)Nc2ccc(F)cc2F)C1=O
unit-name: %
pest or weed control at 125 g/ha: 0
//
compound: CN1C[C@H](c2cccc(COC(F)F)c2)[C@@H](C(=O)Nc2ccccc2F)C1=O
unit-name: %
pest or weed control at 125 g/ha: 20
//
compound: CN1C[C@H](c2cccc(C3CC3)c2)[C@@H](C(=O)Nc2ccc(F)cc2F)C1=O
unit-name: %
pest or weed control at 125 g/ha: 40
//
compound: O=C1NC[C@H](c2ccc(F)c(OC(F)(F)C(F)(F)Br)c2)[C@H]1C(=O)Nc1cccc(F)c1F (racemic)
unit-name: %
pest or weed control at 125 g/ha: 0
//
compound: CN1C[C@H](c2cccc(C3CC3)c2)[C@@H](C(=O)Nc2ccccc2S(C)(=O)=O)C1=O
unit-name: %
pest or weed control at 125 g/ha: 30
//
compound: CCOc1ccc([C@H]2CN(C)C(=O)[C@@H]2C(=O)Nc2ccc(F)cc2F)cc1
unit-name: %
pest or weed control at 125 g/ha: 0
//
compound: COc1ccc([C@H]2CN(C)C(=O)[C@@H]2C(=O)Nc2cccc(F)c2F)cc1OC
unit-name: %
pest or weed control at 125 g/ha: 0
//
compound: CN1C[C@H](c2cc(F)c(C(F)(F)F)c(F)c2)[C@@H](C(=O)Nc2ccccc2S(C)(=O)=O)C1=O
unit-name: %
pest or weed control at 125 g/ha: 40

----------
tested on: ragweed (common ragweed, Ambrosia elatior); assay: Test A postemergence; assay type: in vivo; settings: Ambrosia artemisiifolia, post-emergence, 240 h, 500 g ai/ha, postemergence; 0 to 100 scale, 0 is no effect, 100 is complete control; read-out: Ragweed plant response rating
Criterion: pest or weed control at 500 g/ha meeting or surpassing 40%. Met: Fulfilled. Not met: Not fulfilled.

molecule: CSc1ccccc1NC(=O)[C@H]1C(=O)N(C)C[C@@H]1c1cccc(C)c1 [Compound 1232]
test-system: ragweed (common ragweed, Ambrosia elatior)
group-label: Fulfilled
//
molecule: CCc1cccc([C@H]2CCNC(=O)[C@@H]2C(=O)Nc2cccc(F)c2F)c1 [Compound 1058]
test-system: ragweed (common ragweed, Ambrosia elatior)
group-label: Fulfilled
//
molecule: CN1C[C@H](c2cc(F)cc(C(F)(F)F)c2)[C@@H](C(=O)Nc2cccc(F)c2F)C1=O [Compound 1214]
test-system: ragweed (common ragweed, Ambrosia elatior)
group-label: Not fulfilled
//
molecule: CSc1ccccc1NC(=O)[C@H]1C(=O)NC[C@@H]1c1ccc(F)c(C#N)c1 [Compound 1201]
test-system: ragweed (common ragweed, Ambrosia elatior)
group-label: Not fulfilled
//
molecule: CCc1ccc([C@H]2CNC(=O)[C@@H]2C(=O)Nc2cccc(F)c2C)cc1 [Compound 1177]
test-system: ragweed (common ragweed, Ambrosia elatior)
group-label: Not fulfilled
//
molecule: O=C1NC[C@H](c2cc(C(F)F)cs2)[C@H]1C(=O)Nc1cccc(F)c1F [Compound 1117]
test-system: ragweed (common ragweed, Ambrosia elatior)
group-label: Not fulfilled
//
molecule: Cc1cc([C@H]2CNC(=O)[C@@H]2C(=O)Nc2ccccc2C(F)(F)F)ccc1Cl [Compound 1245]
test-system: ragweed (common ragweed, Ambrosia elatior)
group-label: Fulfilled
//
molecule: CCc1cc([C@H]2CN(C)C(=O)[C@@H]2C(=O)Nc2ccccc2F)cs1 [Compound 1156]
test-system: ragweed (common ragweed, Ambrosia elatior)
group-label: Not fulfilled
